# System: A. baumannii 7226/16
# PROTOCOL_SUMMARY: Checkerboard titration (FICI)
# Assay type: cell-based, Acinetobacter baumannii
# TEST_PARAMETERS: antibiotic in combination with ChBac3.4
Marks after values point to notes of the source that are not given here.
ATTRIBUTE_MEASURED: Minimal FICI

COMPOUND	Minimal FICI
C[C@@H](O)[C@H]1C(=O)N2C(C(=O)O)=C(S[C@@H]3CN[C@H](C(=O)N(C)C)C3)[C@H](C)[C@H]12	0.5^*
CC1COc2c(N3CCN(C)CC3)c(F)cc3c(=O)c(C(=O)O)cn1c23 (stereo not drawn)	0.5^*

Need Minimal FICI, item NCC[C@H](O)C(=O)N[C@@H]1C[C@H](N)[C@@H](O[C@H]2O[C@H](CN)[C@@H](O)[C@H](O)[C@H]2O)[C@H](O)[C@H]1O[C@H]1O[C@H](CO)[C@@H](O)[C@H](N)[C@H]1O 0.5^*
